- Test system: HEK-293T
- assay overview: Protonophoric activity in human HEK293T/17 cells assessed as mitochondrial membrane depolarization at 50 uM for 30 mins by TMRE dye based flow cytometry
- Assay type: functional, cell-based
Calls of active or inactive are those of the source. No cut-off for these calls is given here.
Classes used: active, inactive

[
  {
    "compound": "Cc1cc(C(C#N)c2ccc(Cl)cc2)c(Cl)cc1NC(=O)c1cc(I)cc(I)c1O (configuration not stated)",
    "class": "active"
  },
  {
    "compound": "O=C(Nc1ccc(Oc2ccccc2)cc1)c1cc(I)cc(I)c1",
    "class": "inactive"
  },
  {
    "compound": "O=C(Nc1ccc2ccccc2c1)c1cc(I)cc(I)c1",
    "class": "inactive"
  },
  {
    "compound": "O=C(Nc1ccc(Oc2ccc(Cl)cc2)cc1)c1cc(I)cc(I)c1",
    "class": "inactive"
  },
  {
    "compound": "O=C(Nc1ccc(Oc2ccccc2)cc1)c1cc(I)cc(I)c1O",
    "class": "active"
  },
  {
    "compound": "COc1c(I)cc(I)cc1C(=O)Nc1ccc2ccccc2c1",
    "class": "inactive"
  },
  {
    "compound": "COc1c(I)cc(I)cc1C(=O)Nc1ccc(Oc2ccc(Cl)cc2)cc1",
    "class": "inactive"
  }
]
